system: K86415-001-R-J1-PDC complex spheroids, viability; assay: Anticancer human tumor K86415-001-R-J1-PDC patient-derived lung adenocarcinoma cell line growth inhibition [RAS]; conditions: second compound 0.0316 µM; first compound 0.1 µM; active = viability on the fitted dose curve at most 10% of control; inactive = the rest;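 note: spheroids exposed to agents for seven days before readout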
Write down one outcome, taken from active, inactive

Solved entries:
{"compound": "CC(=O)OC12COC1CC(O)C1(C)C(=O)C(O)C3=C(C)C(OC(=O)C(O)C(NC(=O)OC(C)(C)C)c4ccccc4)CC(O)(C(OC(=O)c4ccccc4)C21)C3(C)C (stereo not given) + C=CC(=O)N1CCN(c2nc(OCC3CCCN3C)nc3c(F)c(-c4nc(N)cc(C)c4C(F)(F)F)c(Cl)cc23)C(C)C1", "group": "active"}
{"compound": "Nc1ccn(C2OC(CO)C(O)C2(F)F)c(=O)n1 (stereo not given) + C#Cc1c(F)ccc2cc(O)cc(-c3ncc4c(N5CC6CCC(C5)N6)nc(OCC56CCCN5CC(F)C6)nc4c3F)c12", "group": "inactive"}
{"compound": "C=CC(=O)Nc1cc(Nc2nccc(-c3cn(C)c4ccccc34)n2)c(OC)cc1N(C)CCN(C)C + C=CC(=O)N1CCN(c2nc(OCC3CCCN3C)nc3c(F)c(-c4nc(N)cc(C)c4C(F)(F)F)c(Cl)cc23)C(C)C1", "group": "active"}
{"compound": "Cc1nc(N2CCC3(CC2)COC(C)C3N)c(CO)nc1Sc1ccnc(N)c1Cl (stereo not given) + C=CC(=O)N1CCN(c2nc(OCC3CCCN3C)nc3c(F)c(-c4nc(N)cc(C)c4C(F)(F)F)c(Cl)cc23)C(C)C1", "group": "active"}
{"compound": "CC(Nc1ccc2c(c1)OCCn1cc(N3C(=O)OCC3C(F)F)nc1-2)C(N)=O (stereo not given) + C=CC(=O)N1CCN(c2nc(OCC3CCCN3C)nc3c(F)c(-c4nc(N)cc(C)c4C(F)(F)F)c(Cl)cc23)C(C)C1", "group": "active"}

Call for entry NC1c2ccccc2OC12CCN(c1cnc3c(N4CCCc5ncccc54)n[nH]c3n1)CC2 (stereo not given) + C#Cc1c(F)ccc2cc(O)cc(-c3ncc4c(N5CC6CCC(C5)N6)nc(OCC56CCCN5CC(F)C6)nc4c3F)c12 :
inactive

Outcome logged for CCC(CC)c1cc(NC2CCC(N)C2)n2nccc2n1 (stereo not given) + C#Cc1c(F)ccc2cc(O)cc(-c3ncc4c(N5CC6CCC(C5)N6)nc(OCC56CCCN5CC(F)C6)nc4c3F)c12 in this assay:
inactive

Short answer needed: outcome of this test for CCC(CC)c1cc(NC2CCC(N)C2)n2nccc2n1 (stereo not given) + C=CC(=O)N1CCN(c2nc(OCC3CCCN3C)nc3c(F)c(-c4nc(N)cc(C)c4C(F)(F)F)c(Cl)cc23)C(C)C1 ?
inactive

What did the test return for CC1(O)CCCC1n1c(=O)c(C(F)F)cc2cnc(NC3CCN(S(C)(=O)=O)CC3)nc21 (stereo not given) + C=CC(=O)N1CCN(c2nc(OCC3CCCN3C)nc3c(F)c(-c4nc(N)cc(C)c4C(F)(F)F)c(Cl)cc23)C(C)C1 ?
inactive

// return assay outcome for CCN1CCN(Cc2ccc(Nc3ncc(F)c(-c4cc(F)c5nc(C)n(C(C)C)c5c4)n3)nc2)CC1 + C#Cc1c(F)ccc2cc(O)cc(-c3ncc4c(N5CC6CCC(C5)N6)nc(OCC56CCCN5CC(F)C6)nc4c3F)c12
inactive

Data provenance: PubChem BioAssay AID2060893
